Reference source: patent US10221161B2

What follows is a record of pIC50 for Human KLK1 (Homo sapiens (Human)).
Friendly reminder that pIC50 comes from taking -log10 of the concentration in mol/L.

smiles_string=CCN(CC)c1cc(Cc2cncc(C(=O)NCc3ccc4c(N)nccc4c3)c2)ccn1 numeric_result=5.30

Please examine the following record next.
Which pIC50 is reported with Human KLK1 (Homo sapiens (Human)) for this entry: Nc1nccc2cc(CNC(=O)c3cncc(Cc4ccc5ccncc5c4)c3)ccc12 ?
5.23
